# Assayed system: E. coli ribose binding protein variant L236C, fluorophore conjugate (Escherichia coli, UniProt P02925, L261C)
# Construct: Gly-Ser-Gly-(His)n or Gly-Ser-(His)n, n=5, 6 or 10 (C); initiator methionine (N); made in house; host or cells: E. coli strain BL21-DE3
# Sequence (P02925 26-296 L261C): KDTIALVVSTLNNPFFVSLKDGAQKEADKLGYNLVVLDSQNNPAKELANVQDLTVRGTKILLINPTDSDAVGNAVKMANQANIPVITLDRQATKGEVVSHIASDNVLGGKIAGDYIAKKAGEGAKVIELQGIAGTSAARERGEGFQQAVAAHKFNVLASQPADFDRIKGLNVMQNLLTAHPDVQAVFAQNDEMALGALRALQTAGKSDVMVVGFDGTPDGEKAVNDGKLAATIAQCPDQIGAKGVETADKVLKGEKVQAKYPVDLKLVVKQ
# Test name: Fluorimetric titration of fluorophore conjugates
# Test conditions: JPW4045 conjugate, ligand ribose
Recorded metric: pKd
Give bare numbers, as −log10 of the molar value.

What value of pKd has been recorded for this entry: OC1OC[C@@H](O)[C@@H](O)[C@H]1O (stereo partly shown) 5.82

###

# Assayed system: E. coli arabinose binding protein variant C64A/L298C (Escherichia coli, UniProt P02924, C87A/L321C)
# Construct: initiator methionine (N); Gly-Ser-Gly-(His)n or Gly-Ser-(His)n (n = 5, 6 or 10) (C)
# Sequence (P02924 24-329 C87A/L321C): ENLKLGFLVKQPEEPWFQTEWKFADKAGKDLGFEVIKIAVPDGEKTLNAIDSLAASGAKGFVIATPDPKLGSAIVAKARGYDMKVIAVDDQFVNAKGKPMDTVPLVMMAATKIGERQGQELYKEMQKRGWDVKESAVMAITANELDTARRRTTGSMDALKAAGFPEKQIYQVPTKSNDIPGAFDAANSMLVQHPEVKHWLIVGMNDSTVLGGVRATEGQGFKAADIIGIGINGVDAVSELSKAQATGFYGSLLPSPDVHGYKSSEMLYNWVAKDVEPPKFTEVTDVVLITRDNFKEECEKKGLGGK
# Test name: Arabinose affinity by tryptophan fluorescence
Recorded metric: pKd
Answers are plain numbers, as −log10 of the molar value.

What value of pKd has been recorded for this entry: OC1OC[C@H](O)[C@H](O)[C@H]1O (stereo partly shown) 5.12

meta.source: patent US9625458B2
